Lab note: log10 IC50 readings collected with Beta-secretase 1 (Homo sapiens, UniProt P56817) for the following molecules.
Sequence (P56817 whole entry): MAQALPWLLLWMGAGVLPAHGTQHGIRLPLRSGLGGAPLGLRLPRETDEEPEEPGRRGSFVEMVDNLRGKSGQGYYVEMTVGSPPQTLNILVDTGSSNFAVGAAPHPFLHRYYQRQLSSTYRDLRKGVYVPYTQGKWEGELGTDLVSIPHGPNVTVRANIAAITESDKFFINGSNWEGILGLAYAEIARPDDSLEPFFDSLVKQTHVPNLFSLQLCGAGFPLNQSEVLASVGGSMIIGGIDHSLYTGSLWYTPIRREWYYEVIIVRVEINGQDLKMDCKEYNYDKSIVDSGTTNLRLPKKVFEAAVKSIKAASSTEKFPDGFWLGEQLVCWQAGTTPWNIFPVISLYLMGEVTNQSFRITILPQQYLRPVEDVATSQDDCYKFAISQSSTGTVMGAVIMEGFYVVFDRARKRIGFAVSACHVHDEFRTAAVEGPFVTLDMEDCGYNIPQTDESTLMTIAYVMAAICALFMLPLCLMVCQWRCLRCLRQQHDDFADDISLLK
reportedProperty: log10 IC50 (log10 of the value in nM)

molecule: Fc1ccc(/C=N\C2CCN(Cc3ccccc3)C2)c(F)c1 (stereo not given)
targetUnderTest: Beta-secretase 1 (Homo sapiens, UniProt P56817)
reportedProperty: log10 IC50
measValue: 3.42
//
molecule: Oc1ccc(CNC2CCN(Cc3ccccc3)C2)c(O)c1 (stereo not given)
targetUnderTest: Beta-secretase 1 (Homo sapiens, UniProt P56817)
reportedProperty: log10 IC50
measValue: 2.68
//
molecule: COc1cccc(CNC2CCN(Cc3ccccc3)C2)c1OC (stereo not given)
targetUnderTest: Beta-secretase 1 (Homo sapiens, UniProt P56817)
reportedProperty: log10 IC50
measValue: 3.46
//
molecule: COc1cc(CNC2CCN(Cc3ccccc3)C2)cc(OC)c1OC (stereo not given)
targetUnderTest: Beta-secretase 1 (Homo sapiens, UniProt P56817)
reportedProperty: log10 IC50
measValue: 2.93
//
molecule: FC(F)(F)c1ccc(/C=N\C2CCN(Cc3ccccc3)C2)cc1 (stereo not given)
targetUnderTest: Beta-secretase 1 (Homo sapiens, UniProt P56817)
reportedProperty: log10 IC50
measValue: 2.83
//
molecule: Brc1ccc(CNC2CCN(Cc3ccccc3)C2)cc1 (stereo not given)
targetUnderTest: Beta-secretase 1 (Homo sapiens, UniProt P56817)
reportedProperty: log10 IC50
measValue: 2.81
//
molecule: Clc1ccc(/C=N\C2CCN(Cc3ccccc3)C2)cc1 (stereo not given)
targetUnderTest: Beta-secretase 1 (Homo sapiens, UniProt P56817)
reportedProperty: log10 IC50
measValue: 3.10
//
molecule: Oc1ccc(CNC2CCN(Cc3ccccc3)C2)cc1 (stereo not given)
targetUnderTest: Beta-secretase 1 (Homo sapiens, UniProt P56817)
reportedProperty: log10 IC50
measValue: 2.99
//
molecule: Brc1ccc(/C=N\C2CCN(Cc3ccccc3)C2)cc1 (stereo not given)
targetUnderTest: Beta-secretase 1 (Homo sapiens, UniProt P56817)
reportedProperty: log10 IC50
measValue: 3.24
//
molecule: Fc1ccc(CNC2CCN(Cc3ccccc3)C2)cc1 (stereo not given)
targetUnderTest: Beta-secretase 1 (Homo sapiens, UniProt P56817)
reportedProperty: log10 IC50
measValue: 2.92
//
molecule: Oc1ccccc1CNC1CCN(Cc2ccccc2)C1 (stereo not given)
targetUnderTest: Beta-secretase 1 (Homo sapiens, UniProt P56817)
reportedProperty: log10 IC50
measValue: 3.37
//
molecule: c1ccc(CNC2CCN(Cc3ccccc3)C2)cc1 (stereo not given)
targetUnderTest: Beta-secretase 1 (Homo sapiens, UniProt P56817)
reportedProperty: log10 IC50
measValue: 3.38
//
molecule: FC(F)(F)c1ccc(CNC2CCN(Cc3ccccc3)C2)cc1 (stereo not given)
targetUnderTest: Beta-secretase 1 (Homo sapiens, UniProt P56817)
reportedProperty: log10 IC50
measValue: 2.99
//
molecule: Fc1ccc(CNC2CCN(Cc3ccccc3)C2)c(F)c1 (stereo not given)
targetUnderTest: Beta-secretase 1 (Homo sapiens, UniProt P56817)
reportedProperty: log10 IC50
measValue: 1.99
//
molecule: FC(F)(F)Oc1ccc(/C=N\C2CCN(Cc3ccccc3)C2)cc1 (stereo not given)
targetUnderTest: Beta-secretase 1 (Homo sapiens, UniProt P56817)
reportedProperty: log10 IC50
measValue: 3.32
//
molecule: FC(F)(F)Oc1ccc(CNC2CCN(Cc3ccccc3)C2)cc1 (stereo not given)
targetUnderTest: Beta-secretase 1 (Homo sapiens, UniProt P56817)
reportedProperty: log10 IC50
measValue: 2.06
//
molecule: O=[N+]([O-])c1ccc(/C=N\C2CCN(Cc3ccccc3)C2)cc1 (stereo not given)
targetUnderTest: Beta-secretase 1 (Homo sapiens, UniProt P56817)
reportedProperty: log10 IC50
measValue: 3.58
//
molecule: Oc1ccc(/C=N\C2CCN(Cc3ccccc3)C2)c(O)c1 (stereo not given)
targetUnderTest: Beta-secretase 1 (Homo sapiens, UniProt P56817)
reportedProperty: log10 IC50
measValue: 3.65
//
molecule: O=[N+]([O-])c1ccc(CNC2CCN(Cc3ccccc3)C2)cc1 (stereo not given)
targetUnderTest: Beta-secretase 1 (Homo sapiens, UniProt P56817)
reportedProperty: log10 IC50
measValue: 3.26
//
molecule: C(=N/C1CCN(Cc2ccccc2)C1)/c1ccccc1 (stereo not given)
targetUnderTest: Beta-secretase 1 (Homo sapiens, UniProt P56817)
reportedProperty: log10 IC50
measValue: 3.64
//
molecule: Fc1ccc(/C=N\C2CCN(Cc3ccccc3)C2)cc1 (stereo not given)
targetUnderTest: Beta-secretase 1 (Homo sapiens, UniProt P56817)
reportedProperty: log10 IC50
measValue: 3.29
//
molecule: Clc1ccc(CNC2CCN(Cc3ccccc3)C2)cc1 (stereo not given)
targetUnderTest: Beta-secretase 1 (Homo sapiens, UniProt P56817)
reportedProperty: log10 IC50
measValue: 2.21
//
molecule: Oc1ccc(/C=N\C2CCN(Cc3ccccc3)C2)cc1 (stereo not given)
targetUnderTest: Beta-secretase 1 (Homo sapiens, UniProt P56817)
reportedProperty: log10 IC50
measValue: 3.66
//
molecule: Cc1ccc(CNC2CCN(Cc3ccccc3)C2)cc1 (stereo not given)
targetUnderTest: Beta-secretase 1 (Homo sapiens, UniProt P56817)
reportedProperty: log10 IC50
measValue: 3.35

The values you see were collected from ChEMBL document CHEMBL4699547.
